# protocol: in vitro
# conditionDescription: human, hela cells, % viability
quantityKind: viability at 28.5 h, 10 µM
Remember to quote the unit after the number.

• COc1cc(-c2nc(NC(=O)C(C)C)cc3ccccc23)cc(OC)c1OC [CBK085741] = 106%

Reported viability at 28.5 h, 10 µM for COc1ccc(/C=N/NS(C)(=O)=O)cc1 [CBK261981] : what is it? 108%

Reported viability at 28.5 h, 10 µM for CCOc1cc(NC2CCN(C(=O)C(C)CC3CCCC3)CC2)ncn1 (stereo not drawn) [CBK306176] : what is it? 85.3%

Reported viability at 28.5 h, 10 µM for CC1=Nc2c(ccc3nsnc23)NC(=O)C1 [CBK019676] : what is it? 97.1%

Reported viability at 28.5 h, 10 µM for CCn1c2cc(C)sc2c2cnn(CC(=O)N(C)C)c(=O)c21 [CBK284173] : what is it? 85%

Reported viability at 28.5 h, 10 µM for CCC(Oc1ccccc1)C(=O)Nc1ccccc1-c1ccccc1 (stereo not drawn) [CBK266031] : what is it? 108%

###

Readings of viability at 28.5 h, 10 µM for the listed compounds
# protocol: in vitro
# conditionDescription: human, hela cells, % viability
Field format: number, assumed %, no unit text.

Past entries and their recorded results:
- O=C(Cn1nnc2ccccc2c1=O)NC(Cc1ccccc1)c1ccccc1 (stereo not drawn) [CBK296933]: 96.6
- N#CCCn1cc(C(=O)n2nnc3ccccc32)c(-c2cc3ccccc3o2)n1 [CBK268073]: 103
- CC1CCCC(C)N1C(=O)Cn1ncc2cccn2c1=O (stereo not drawn) [CBK283680]: 101
- CNC(=O)CN1C(=O)CC2(C1=O)C(=O)N(CCOC)c1ccc(OC)cc12 (stereo not drawn) [CBK075144]: 90.8
- Cc1ccc(Cl)cc1Nc1nc2nc(C)c(NCC3CC3)cn2n1 [CBK008522]: 105
- Cc1nccn1CCC1CCN(C(=O)c2cn3ccccc3n2)CC1 [CBK281868]: 91.2
- O=C(CCSc1ccccc1)Nc1ccccc1C(=O)O [CBK264119]: 92.1
- Cc1oc2c(c1C(=O)NCC(=O)NCC(=O)O)CCCC2 [CBK264015]: 97.6

Next item in the queue.
Reported viability at 28.5 h, 10 µM for C[C@@H](c1ccccc1)N1C(=O)[C@@H]2CN(S(=O)(=O)c3cccs3)CCN2C1=O [CBK289635] : what is it? 91.3

###

# protocol: in vitro
# conditionDescription: human, hela cells, % viability
quantityKind: viability at 28.5 h, 10 µM (%)
Field format: number, assumed %, no unit text.

Past entries and their recorded results:
- CCCCn1c(SCC(=O)c2cc(C)n(CCc3ccc(OC)cc3)c2C)n[nH]c1=O: 96.1
- CNC(=O)c1ccc(CN(Cc2noc(C(C)C)n2)C2CC2)cc1: 83
- COC(=O)c1ccccc1NC(=O)C(C)Oc1ccc(Cl)cc1C (stereo not drawn): 79.2
- COc1cc([N+](=O)[O-])ccc1NC(=O)C1CC(Cl)=CCC1C(=O)O (stereo not drawn): 88.8
- CC1CCN(c2ccc(S(=O)(=O)Nc3cc(C(=O)O)cc(C(=O)O)c3)cc2[N+](=O)[O-])CC1: 94.8

Reported viability at 28.5 h, 10 µM for O=C(Nc1nccc(N2CCNCC2)n1)C1CCCC1 [CBK004302T] : what is it? 113

Data origin: paper PMC12040169
